Sourced from patent US20090281054A1

tested on: M. avium complex (MAC); experiment: MIC by microdilution method in 7H9 broth; type: cell-based; conditions: Mycobacterium avium, MAC strain NIH C1-1; read-out: MIC
READOUT NAME: MIC (µg/mL)
Could you give me the number in µg/mL? Just the number is fine.

Worked set:
- CO[C@H]1[C@@H](O)[C@H](n2ccc(=O)[nH]c2=O)O[C@@H]1[C@@H](O[C@H]1OC(C(=O)Nc2ccc(Br)c(C)c2)=C[C@H](O)[C@@H]1O)C(N)=O: 4
- CO[C@H]1[C@@H](O)[C@H](n2ccc(=O)[nH]c2=O)O[C@@H]1[C@@H](O[C@H]1OC(C(=O)Nc2ccc(C(F)(F)F)cc2)=C[C@H](O)[C@@H]1O)C(N)=O: 4

Given the entry CO[C@H]1[C@@H](O)[C@H](n2ccc(=O)[nH]c2=O)O[C@@H]1[C@@H](O[C@H]1OC(C(=O)Nc2ccc([N+](=O)[O-])cc2)=C[C@H](O)[C@@H]1O)C(N)=O , report its measured MIC.
4

Given the entry CO[C@H]1[C@@H](O)[C@H](n2ccc(=O)[nH]c2=O)O[C@@H]1[C@@H](O[C@H]1OC(C(=O)Nc2ccc(OC(F)(F)F)cc2)=C[C@H](O)[C@@H]1O)C(N)=O , report its measured MIC.
8

Given the entry CO[C@H]1[C@@H](O)[C@H](n2ccc(=O)[nH]c2=O)O[C@@H]1[C@@H](O[C@H]1OC(C(=O)Nc2ccc(F)c(C(F)(F)F)c2)=C[C@H](O)[C@@H]1O)C(N)=O , report its measured MIC.
8

====

tested on: M. avium complex (MAC); experiment: MIC by microdilution method in 7H9 broth; type: cell-based; settings: Mycobacterium avium, MAC strain A5; read-out: MIC
Let's look at some compounds and their measured MIC.
Could you give me the number in µg/mL? Just the number is fine.

Given the entry CO[C@H]1[C@@H](O)[C@H](n2ccc(=O)[nH]c2=O)O[C@@H]1[C@@H](O[C@H]1OC(C(=O)Nc2ccc(F)c(F)c2)=C[C@H](O)[C@@H]1O)C(N)=O , report its measured MIC.
2

Given the entry CO[C@H]1[C@@H](O)[C@H](n2ccc(=O)[nH]c2=O)O[C@@H]1[C@@H](O[C@H]1OC(C(=O)Nc2ccc(OC(F)(F)F)cc2)=C[C@H](O)[C@@H]1O)C(N)=O , report its measured MIC.
1

Given the entry CCCCCCCCCC(=O)O[C@@H]1[C@H](OC)[C@@H]([C@@H](O[C@H]2OC(C(=O)N[C@H]3CCC[C@@H](C)NC3=O)=C[C@H](O)[C@@H]2O)C(N)=O)O[C@H]1n1ccc(=O)[nH]c1=O , report its measured MIC.
0.5

Given the entry CO[C@H]1[C@@H](O)[C@H](n2ccc(=O)[nH]c2=O)O[C@@H]1[C@@H](O[C@H]1OC(C(=O)N[C@H]2CCC[C@@H](C)NC2=O)=C[C@H](O)[C@@H]1O)C(N)=O , report its measured MIC.
16

====

molecular target: translocase I (Escherichia coli, UniProt P0A6W3); assay: IC50 against translocase I; type: biochemical
Sequence (P0A6W3 whole entry): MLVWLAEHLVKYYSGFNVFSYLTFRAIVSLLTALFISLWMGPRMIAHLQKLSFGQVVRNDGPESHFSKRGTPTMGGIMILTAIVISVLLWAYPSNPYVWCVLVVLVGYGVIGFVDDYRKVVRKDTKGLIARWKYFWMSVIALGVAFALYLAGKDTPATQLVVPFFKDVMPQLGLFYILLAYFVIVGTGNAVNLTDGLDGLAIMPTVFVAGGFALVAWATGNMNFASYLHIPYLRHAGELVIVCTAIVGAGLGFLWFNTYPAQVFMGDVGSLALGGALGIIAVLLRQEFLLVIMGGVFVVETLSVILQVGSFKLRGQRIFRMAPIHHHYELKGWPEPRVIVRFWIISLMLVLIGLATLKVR
Let's look at some compounds and their measured IC50 against translocase I.
Could you give me the number in ng/mL? Just the number is fine.

* CO[C@H]1[C@@H](O)[C@H](n2ccc(=O)[nH]c2=O)O[C@@H]1[C@@H](O[C@H]1OC(C(=O)N[C@H]2CCC[C@@H](C)NC2=O)=C[C@H](O)[C@@H]1O)C(N)=O | 10
* CO[C@H]1[C@@H](O)[C@H](n2ccc(=O)[nH]c2=O)O[C@@H]1[C@@H](O[C@H]1OC(C(=O)Nc2ccc(C(F)(F)F)cc2)=C[C@H](O)[C@@H]1O)C(N)=O | 30
* CO[C@H]1[C@@H](O)[C@H](n2ccc(=O)[nH]c2=O)O[C@@H]1[C@@H](O[C@H]1OC(C(=O)Nc2cccc(F)c2)=C[C@H](O)[C@@H]1O)C(N)=O | 10
* CO[C@H]1[C@@H](O)[C@H](n2ccc(=O)[nH]c2=O)O[C@@H]1[C@@H](O[C@H]1OC(C(=O)Nc2ccc(F)c(F)c2)=C[C@H](O)[C@@H]1O)C(N)=O | 9

Please look at the following compound next.
Given the entry CCCCCCCCCC(=O)O[C@@H]1[C@H](OC)[C@@H]([C@@H](O[C@H]2OC(C(=O)N[C@H]3CCC[C@@H](C)NC3=O)=C[C@H](O)[C@@H]2O)C(N)=O)O[C@H]1n1ccc(=O)[nH]c1=O , report its measured IC50 against translocase I.
550

====

tested on: M. avium complex (MAC); experiment: MIC by microdilution method in 7H9 broth; format: cell-based; conditions: Mycobacterium avium, MAC strain NIH C1-1; read-out: MIC
READOUT NAME: MIC (µg/mL)
Could you give me the number in µg/mL? Just the number is fine.

Worked set:
- CO[C@H]1[C@@H](O)[C@H](n2ccc(=O)[nH]c2=O)O[C@@H]1[C@@H](O[C@H]1OC(C(=O)Nc2cccc(F)c2)=C[C@H](O)[C@@H]1O)C(N)=O: 8
- CO[C@H]1[C@@H](O)[C@H](n2ccc(=O)[nH]c2=O)O[C@@H]1[C@@H](O[C@H]1OC(C(=O)N[C@H]2CCC[C@@H](C)NC2=O)=C[C@H](O)[C@@H]1O)C(N)=O: 8

Please look at the following molecule next.
Given the entry NCC[C@H](O)C(=O)N[C@@H]1C[C@H](N)[C@@H](O[C@H]2O[C@H](CN)[C@@H](O)[C@H](O)[C@H]2O)[C@H](O)[C@H]1O[C@H]1O[C@H](CO)[C@@H](O)[C@H](N)[C@H]1O [AMK, amikacin, reference compound] , report its measured MIC.
8

====

system: M. abscessus (MAB; ATCC 700869); test: MIC by microdilution method in 7H9 broth; type: cell-based; conditions: Mycobacteroides abscessus, ATCC700869; MAB 700869; read-out: MIC
Let's look at some compounds and their measured MIC.

* CO[C@H]1[C@@H](O)[C@H](n2ccc(=O)[nH]c2=O)O[C@@H]1[C@@H](O[C@H]1OC(C(=O)Nc2ccc(F)c(F)c2F)=C[C@H](O)[C@@H]1O)C(N)=O | 16 µg/mL
* CO[C@H]1[C@@H](O)[C@H](n2ccc(=O)[nH]c2=O)O[C@@H]1[C@@H](O[C@H]1OC(C(=O)Nc2ccc(Br)c(C)c2)=C[C@H](O)[C@@H]1O)C(N)=O | 4 µg/mL
* CO[C@H]1[C@@H](O)[C@H](n2ccc(=O)[nH]c2=O)O[C@@H]1[C@@H](O[C@H]1OC(C(=O)Nc2cccc(F)c2)=C[C@H](O)[C@@H]1O)C(N)=O | 16 µg/mL

Given the entry CC[C@H]1OC(=O)[C@H](C)[C@@H](O[C@H]2C[C@@](C)(OC)[C@@H](O)[C@H](C)O2)[C@H](C)[C@@H](O[C@@H]2O[C@H](C)C[C@H](N(C)C)[C@H]2O)[C@](C)(OC)C[C@@H](C)C(=O)[C@H](C)[C@@H](O)[C@]1(C)O [CLA, clarithromycin, reference compound] , report its measured MIC.
> 32 µg/mL

Given the entry CO[C@H]1[C@@H](O)[C@H](n2ccc(=O)[nH]c2=O)O[C@@H]1[C@@H](O[C@H]1OC(C(=O)Nc2ccc([N+](=O)[O-])cc2)=C[C@H](O)[C@@H]1O)C(N)=O , report its measured MIC.
> 32 µg/mL

====

system: M. abscessus (MAB; ATCC 700869); test: MIC by microdilution method in 7H9 broth; format: cell-based; conditions: Mycobacteroides abscessus, ATCC700869; MAB 700869; read-out: MIC
Let's look at some compounds and their measured MIC.

Worked set:
• CO[C@H]1[C@@H](O)[C@H](n2ccc(=O)[nH]c2=O)O[C@@H]1[C@@H](O[C@H]1OC(C(=O)Nc2ccc(OC(F)(F)F)cc2)=C[C@H](O)[C@@H]1O)C(N)=O [RKS2241] = 2 µg/mL
• CO[C@H]1/C=C/O[C@@]2(C)Oc3c(C)c(O)c4c(O)c(c(/C=N/N5CCN(C)CC5)c(O)c4c3C2=O)NC(=O)/C(C)=C\C=C\[C@H](C)[C@H](O)[C@@H](C)[C@@H](O)[C@@H](C)[C@H](OC(C)=O)[C@@H]1C [RIF, rifampicin, reference compound] = > 32 µg/mL

Please look at the following compound next.
Enter reported MIC observed with M. abscessus (MAB; ATCC 700869) for COc1c(N2C[C@@H]3CCCN[C@@H]3C2)c(F)cc2c(=O)c(C(=O)O)cn(C3CC3)c12 [MOX, moxifloxacin, reference compound]
> 32 µg/mL

====

tested on: M. abscessus (MAB; ATCC 700869); assay: MIC by microdilution method in 7H9 broth; type: cell-based; details: Mycobacteroides abscessus, ATCC700869; MAB 700869; read-out: MIC
Let's look at some compounds and their measured MIC.

Worked set:
- CO[C@H]1[C@@H](O)[C@H](n2ccc(=O)[nH]c2=O)O[C@@H]1[C@@H](O[C@H]1OC(C(=O)Nc2ccc(C(F)(F)F)cc2)=C[C@H](O)[C@@H]1O)C(N)=O [RKS2033]: 2 µg/mL
- NNC(=O)c1ccncc1 [INH, isoniazid, reference compound]: > 32 µg/mL

Please look at the following compound next.
Enter reported MIC observed with M. abscessus (MAB; ATCC 700869) for CO[C@H]1[C@@H](O)[C@H](n2ccc(=O)[nH]c2=O)O[C@@H]1[C@@H](O[C@H]1OC(C(=O)Nc2ccc(F)c(F)c2)=C[C@H](O)[C@@H]1O)C(N)=O [SQ922]
16 µg/mL
